Target: Serine/threonine-protein kinase Chk1 (Homo sapiens, UniProt O14757)
Sequence (O14757 whole entry): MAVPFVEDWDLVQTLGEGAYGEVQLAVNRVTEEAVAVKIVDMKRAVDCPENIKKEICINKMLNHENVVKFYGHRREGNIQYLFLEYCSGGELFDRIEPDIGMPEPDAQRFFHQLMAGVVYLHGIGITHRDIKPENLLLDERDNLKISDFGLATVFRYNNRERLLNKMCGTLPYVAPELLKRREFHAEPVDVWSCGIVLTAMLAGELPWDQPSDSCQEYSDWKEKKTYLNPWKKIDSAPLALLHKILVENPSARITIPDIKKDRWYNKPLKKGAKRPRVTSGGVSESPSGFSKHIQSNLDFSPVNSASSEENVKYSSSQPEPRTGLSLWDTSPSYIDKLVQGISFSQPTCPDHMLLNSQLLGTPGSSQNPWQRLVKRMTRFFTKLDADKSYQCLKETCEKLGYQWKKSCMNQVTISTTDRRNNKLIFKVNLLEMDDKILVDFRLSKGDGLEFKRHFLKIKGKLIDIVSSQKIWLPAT
Test: Inhibition of recombinant His-CHK1 expressed in baculovirus after 2 hrs by scintillation proximity assay
Returns: string. Value is y if measured IC50 is below 2 µM, and n if it is greater than or equal to it.

{"columns": ["compound", "categoryLabel"],
 "data": [
  ["CCOC(=O)c1cnn2c(N)cc(C3CCCNC3)nc12 (centres undefined)", "n"],
  ["Cn1cc(-c2cnn3c(NC4CCNCC4)cc(C4CCCNC4)nc23)cn1 (centres undefined)", "n"],
  ["Cn1cc(-c2cnn3c(NCc4ccccc4)cc(C4CCCNC4)nc23)cn1 (centres undefined)", "y"],
  ["CCNc1cc(C2CCCNC2)nc2c(-c3cnn(C)c3)cnn12 (centres undefined)", "y"],
  ["Cn1cc(-c2cnn3c(Nc4nccs4)cc(C4CCCNC4)nc23)cn1 (centres undefined)", "y"],
  ["C/C=C/c1cnn2c(N)cc(C3CCCNC3)nc12 (centres undefined)", "n"],
  ["Nc1cc(C2CCCNC2)nc2ccnn12 (centres undefined)", "n"],
  ["Cn1cc(-c2cnn3c(NCc4cccnc4)cc(C4CCCNC4)nc23)cn1 (centres undefined)", "y"],
  ["Cn1cc(-c2cnn3c(NCCO)cc(C4CCCNC4)nc23)cn1 (centres undefined)", "y"],
  ["Nc1cc(C2CCCNC2)nc2c(-c3cccc(O)c3)cnn12 (centres undefined)", "y"],
  ["Cn1cc(-c2cnn3c(NC(C)(C)C)cc(C4CCCNC4)nc23)cn1 (centres undefined)", "n"],
  ["CCc1cnn2c(N)cc(C3CCCNC3)nc12 (centres undefined)", "n"],
  ["[O-][n+]1cccc(CNc2cc(-c3ccccc3F)nc3c(Br)cnn23)c1", "n"],
  ["Cn1cc(-c2cnn3c(N)cc(C4CCCNC4)nc23)cn1 (centres undefined)", "y"],
  ["CNc1cc(C2CCCNC2)nc2c(-c3cnn(C)c3)cnn12 (centres undefined)", "y"],
  ["Nc1cc(C2CCCNC2)nc2c(-c3ccccc3)cnn12 (centres undefined)", "n"],
  ["CCn1nccc1Nc1cc(C2CCCNC2)nc2c(-c3cnn(C)c3)cnn12 (centres undefined)", "n"],
  ["CC#Cc1cnn2c(N)cc(C3CCCNC3)nc12 (centres undefined)", "n"],
  ["Nc1cc(-c2ccccc2)nc2c(Br)cnn12", "n"],
  ["Cc1nc2cc(Nc3cc(C4CCCNC4)nc4c(-c5cnn(C)c5)cnn34)ccc2s1 (centres undefined)", "y"],
  ["Nc1cc(C2CCCNC2)nc2c(-c3ccoc3)cnn12 (centres undefined)", "y"],
  ["Nc1cc(C2CCCNC2)nc2c(-c3cnccn3)cnn12 (centres undefined)", "y"],
  ["Cn1cc(-c2cnn3c(Nc4ccc5c(c4)OCO5)cc(C4CCCNC4)nc23)cn1 (centres undefined)", "y"]
]}

====

biological target: Cyclin-dependent kinase 2/cyclin A (Homo sapiens); assay: Inhibition of CDK2/cyclin A

{"columns": ["compound", "targetOrTestSystem", "IC50"],
 "data": [
  ["CNc1cc(C2CCCNC2)nc2c(-c3cnn(C)c3)cnn12 (centres undefined)", "Cyclin-dependent kinase 2/cyclin A (Homo sapiens)", "> 50 µM"],
  ["Cn1cc(-c2cnn3c(NCc4cccnc4)cc(C4CCCNC4)nc23)cn1 (centres undefined)", "Cyclin-dependent kinase 2/cyclin A (Homo sapiens)", "> 50 µM"],
  ["Nc1cc(C2CCCNC2)nc2c(-c3ccsc3)cnn12 (centres undefined)", "Cyclin-dependent kinase 2/cyclin A (Homo sapiens)", "0.59 µM"],
  ["Cn1cc(-c2cnn3c(NC4CCCCC4)cc(C4CCCNC4)nc23)cn1 (centres undefined)", "Cyclin-dependent kinase 2/cyclin A (Homo sapiens)", "> 50 µM"],
  ["Cn1cc(-c2cnn3c(NC4CCNCC4)cc(C4CCCNC4)nc23)cn1 (centres undefined)", "Cyclin-dependent kinase 2/cyclin A (Homo sapiens)", "> 50 µM"],
  ["Cc1nc2cc(Nc3cc(C4CCCNC4)nc4c(-c5cnn(C)c5)cnn34)ccc2s1 (centres undefined)", "Cyclin-dependent kinase 2/cyclin A (Homo sapiens)", "> 50 µM"],
  ["Nc1cc(C2CCCNC2)nc2c(-c3cccs3)cnn12 (centres undefined)", "Cyclin-dependent kinase 2/cyclin A (Homo sapiens)", "0.69 µM"],
  ["Cn1cc(-c2cnn3c(Nc4nccs4)cc(C4CCCNC4)nc23)cn1 (centres undefined)", "Cyclin-dependent kinase 2/cyclin A (Homo sapiens)", "> 50 µM"],
  ["Nc1cc(-c2ccccc2)nc2c(Br)cnn12", "Cyclin-dependent kinase 2/cyclin A (Homo sapiens)", "0.25 µM"]
]}

====

molecular target: Serine/threonine-protein kinase Chk1 (Homo sapiens, UniProt O14757); assay: Inhibition of recombinant His-CHK1 expressed in baculovirus after 2 hrs by scintillation proximity assay
pIC50: −log10 of the molar value.

{"columns": ["compound", "relationSymbol", "pIC50"],
 "data": [
  ["Nc1cc(C2CCCNC2)nc2c(-c3cscn3)cnn12 (centres undefined)", "<", 4.30],
  ["Cc1cc(Nc2cc(C3CCCNC3)nc3c(-c4cnn(C)c4)cnn23)no1 (centres undefined)", "=", 7.68],
  ["Nc1cc(C2CCCNC2)nc2c(-c3cccnc3)cnn12 (centres undefined)", "=", 6.27],
  ["Cn1cc(-c2cnn3c(Nc4nncs4)cc(C4CCCNC4)nc23)cn1 (centres undefined)", "=", 5.66],
  ["Nc1cc(C2CCCNC2)nc2c(-c3ccsc3)cnn12 (centres undefined)", "=", 5.96],
  ["CCOC(=O)c1ccc(Nc2cc(C3CCCNC3)nc3c(-c4cnn(C)c4)cnn23)cc1 (centres undefined)", "=", 7.29],
  ["Nc1cc(C2CCCNC2)nc2c(-c3cccs3)cnn12 (centres undefined)", "=", 5.89],
  ["Nc1cc(C2CCCNC2)nc2c(-c3ccns3)cnn12 (centres undefined)", "=", 7.15],
  ["Cn1cc(-c2cnn3c(Nc4ccccc4)cc(C4CCCNC4)nc23)cn1 (centres undefined)", "=", 7.06],
  ["N#Cc1cnn2c(N)cc(C3CCCNC3)nc12 (centres undefined)", "=", 5.68],
  ["Cn1cc(-c2cnn3c(NC4CCCCC4)cc(C4CCCNC4)nc23)cn1 (centres undefined)", "=", 5.82],
  ["Nc1cc(C2CCCNC2)nc2c(-c3cncnc3)cnn12 (centres undefined)", "=", 6.55],
  ["Cn1cc(-c2cnn3c(Nc4ccccn4)cc(C4CCCNC4)nc23)cn1 (centres undefined)", "=", 7.55],
  ["Nc1cc(C2CCCNC2)nc2c(Br)cnn12 (centres undefined)", "=", 5.97]
]}

====

target: Cyclin-dependent kinase 2/cyclin A (Homo sapiens); assay: Inhibition of CDK2/cyclin A

{"columns": ["compound", "targetOrTestSystem", "relationSymbol", "IC50, µM"],
 "data": [
  ["Nc1cc(C2CCCNC2)nc2c(-c3ccccc3)cnn12 (centres undefined)", "Cyclin-dependent kinase 2/cyclin A (Homo sapiens)", "=", 4.6],
  ["CC#Cc1cnn2c(N)cc(C3CCCNC3)nc12 (centres undefined)", "Cyclin-dependent kinase 2/cyclin A (Homo sapiens)", "=", 0.08],
  ["Cn1cc(-c2cnn3c(Nc4ccccc4)cc(C4CCCNC4)nc23)cn1 (centres undefined)", "Cyclin-dependent kinase 2/cyclin A (Homo sapiens)", ">", 50],
  ["Nc1cc(C2CCCNC2)nc2c(-c3cccc(O)c3)cnn12 (centres undefined)", "Cyclin-dependent kinase 2/cyclin A (Homo sapiens)", "=", 0.64],
  ["Nc1cc(C2CCCNC2)nc2ccnn12 (centres undefined)", "Cyclin-dependent kinase 2/cyclin A (Homo sapiens)", "=", 7.8],
  ["Cn1cc(-c2cnn3c(NC(C)(C)C)cc(C4CCCNC4)nc23)cn1 (centres undefined)", "Cyclin-dependent kinase 2/cyclin A (Homo sapiens)", ">", 50],
  ["CCOC(=O)c1ccc(Nc2cc(C3CCCNC3)nc3c(-c4cnn(C)c4)cnn23)cc1 (centres undefined)", "Cyclin-dependent kinase 2/cyclin A (Homo sapiens)", ">", 50],
  ["Cc1cc(Nc2cc(C3CCCNC3)nc3c(-c4cnn(C)c4)cnn23)no1 (centres undefined)", "Cyclin-dependent kinase 2/cyclin A (Homo sapiens)", ">", 50],
  ["N#Cc1cnn2c(N)cc(C3CCCNC3)nc12 (centres undefined)", "Cyclin-dependent kinase 2/cyclin A (Homo sapiens)", "=", 0.81],
  ["Nc1cc(C2CCCNC2)nc2c(-c3ccns3)cnn12 (centres undefined)", "Cyclin-dependent kinase 2/cyclin A (Homo sapiens)", "=", 0.79],
  ["CCc1cnn2c(N)cc(C3CCCNC3)nc12 (centres undefined)", "Cyclin-dependent kinase 2/cyclin A (Homo sapiens)", "=", 0.27],
  ["Cn1cc(-c2cnn3c(Nc4ccc5c(c4)OCO5)cc(C4CCCNC4)nc23)cn1 (centres undefined)", "Cyclin-dependent kinase 2/cyclin A (Homo sapiens)", ">", 50],
  ["Nc1cc(C2CCCNC2)nc2c(-c3ccn[nH]3)cnn12 (centres undefined)", "Cyclin-dependent kinase 2/cyclin A (Homo sapiens)", "=", 2.2],
  ["Cn1cc(-c2cnn3c(NCCO)cc(C4CCCNC4)nc23)cn1 (centres undefined)", "Cyclin-dependent kinase 2/cyclin A (Homo sapiens)", ">", 50],
  ["Cn1cc(-c2cnn3c(Nc4nncs4)cc(C4CCCNC4)nc23)cn1 (centres undefined)", "Cyclin-dependent kinase 2/cyclin A (Homo sapiens)", ">", 50],
  ["C/C=C/c1cnn2c(N)cc(C3CCCNC3)nc12 (centres undefined)", "Cyclin-dependent kinase 2/cyclin A (Homo sapiens)", "=", 0.71],
  ["CCNc1cc(C2CCCNC2)nc2c(-c3cnn(C)c3)cnn12 (centres undefined)", "Cyclin-dependent kinase 2/cyclin A (Homo sapiens)", ">", 50],
  ["Nc1cc(C2CCCNC2)nc2c(-c3cnccn3)cnn12 (centres undefined)", "Cyclin-dependent kinase 2/cyclin A (Homo sapiens)", "=", 1.2],
  ["Cc1cc(Nc2cc(C3CCCNC3)nc3c(-c4cnn(C)c4)cnn23)sn1 (centres undefined)", "Cyclin-dependent kinase 2/cyclin A (Homo sapiens)", "=", 40],
  ["[O-][n+]1cccc(CNc2cc(-c3ccccc3F)nc3c(Br)cnn23)c1", "Cyclin-dependent kinase 2/cyclin A (Homo sapiens)", "=", 0.013],
  ["Nc1cc(C2CCCNC2)nc2c(Br)cnn12 (centres undefined)", "Cyclin-dependent kinase 2/cyclin A (Homo sapiens)", "=", 0.086],
  ["Nc1cc(C2CCCNC2)nc2c(-c3cncnc3)cnn12 (centres undefined)", "Cyclin-dependent kinase 2/cyclin A (Homo sapiens)", "=", 5.4],
  ["Cn1cc(-c2cnn3c(Nc4ccccn4)cc(C4CCCNC4)nc23)cn1 (centres undefined)", "Cyclin-dependent kinase 2/cyclin A (Homo sapiens)", ">", 50],
  ["Cn1cc(-c2cnn3c(N)cc(C4CCCNC4)nc23)cn1 (centres undefined)", "Cyclin-dependent kinase 2/cyclin A (Homo sapiens)", "=", 6.1]
]}
